- Organism: Rattus norvegicus
- experimentDescription: Uterine activity was meseared in isolated rat uterus in solutions in the absence No Mg2+ 0.5 mM in vitro
- Type: functional
Positions of bridges follow the written chain, without caps; N, C: chain ends. Non-standard residues stand in square brackets, D forms with d. Residues, ends and D or L forms follow the SMILES beside them. NMeA = CN[C@@H](C)C(=O)O; Mpa = O=C(O)CCS
reportedMetric: Uterine activity
Phrase the answer as number then unit, nothing more needed.

NC(=O)CC[C@@H]1NC(=O)[C@H](Cc2ccccc2)NC(=O)[C@H](Cc2ccc(O)cc2)NC(=O)[C@@H](N)CSSC[C@@H](C(=O)N2C[C@H](O)C[C@H]2C(=O)N[C@@H](CCCN=C(N)N)C(=O)NCC(N)=O)NC(=O)[C@H](CC(N)=O)NC1=O (stereo in doubt; form 1) : 73 units/mg

In the following, a different molecule is considered.
Indicate the recorded Uterine activity value for this molecule: C[C@@H](C(=O)N[C@@H](CCCN=C(N)N)C(=O)NCC(N)=O)N(C)C(=O)[C@@H]1CSSCCC(=O)N[C@@H](Cc2ccc(O)cc2)C(=O)N[C@@H](Cc2ccccc2)C(=O)N[C@@H](CCC(N)=O)C(=O)N[C@@H](CC(N)=O)C(=O)N1 ([Mpa]YFQNC[NMeA]RG-NH2; disulfide 1-6)
2 units/mg
